# tested.system: Mcl-1 protein (UniProtKB Q07820) (Homo sapiens (Human), UniProt Q07820)
# Sequence (Q07820 whole entry): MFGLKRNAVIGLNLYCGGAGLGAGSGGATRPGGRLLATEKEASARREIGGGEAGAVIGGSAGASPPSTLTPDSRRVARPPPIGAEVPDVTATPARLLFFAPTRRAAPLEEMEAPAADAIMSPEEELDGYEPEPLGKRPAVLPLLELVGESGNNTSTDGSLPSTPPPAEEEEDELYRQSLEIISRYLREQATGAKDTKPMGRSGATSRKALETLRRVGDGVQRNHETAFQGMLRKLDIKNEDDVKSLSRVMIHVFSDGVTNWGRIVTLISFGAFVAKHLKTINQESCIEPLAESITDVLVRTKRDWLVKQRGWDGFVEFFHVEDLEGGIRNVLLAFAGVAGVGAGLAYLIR
# assay.procedure: Inhibition of Mcl-1 by the fluorescence polarisation assay (Example A, Method A)
# reported.conditions: fluorescence polarization assay
property.label: Ki (µM)

Solved cases (2 shown):
O=C(O)[C@]1(Nc2cccc(Cl)c2)CC[C@@]2(CC1)c1ccccc1CC2c1cccc(Cl)c1 (single isomer, unassigned) [Example 343]: 0.978
O=C(O)[C@]1(Nc2cccc(Cl)c2)CC[C@]2(CC1)C(c1ccccc1Cl)=Cc1ccccc12: 0.559

(P) COc1ccc(C2=Cc3ccccc3[C@]23CC[C@](Nc2cccc(Cl)c2)(C(=O)O)CC3)c(C)c1
(Q) Cc1cnccc1OCCC[C@@H]1Cc2ccccc2[C@]12CC[C@@](Nc1cccc(Cl)c1)(C(=O)O)CC2
Ask: Parameter check: reported Ki is higher for which label, P or Q ? Select an item and report its label.
Reply: P

(1) O=C(O)[C@]1(Nc2cccc(Cl)c2)CC[C@@]2(CC1)c1ccccc1CC2CCCC1CCCC1 (stereo partly shown)
(2) COCCOc1ccc2c(c1)[C@]1(CC[C@@](Nc3cccc(Cl)c3)(C(=O)O)CC1)C(c1cccc(Oc3ccccc3)c1)C2 (single isomer, unassigned)
(3) O=C(O)[C@]1(Nc2cccc(Cl)c2)CC[C@@]2(CC1)c1ccccc1C[C@@H]2C[C@@H](COc1cccnc1)c1ccccc1
Ask: Provide the items ranked by increasing Ki. Submit the labels in the order that the ranking request calls for.
Reply: 2, 1, 3
(2: 0.0588 µM, 1: 0.507 µM, 3: 0.995 µM)

* * *

# tested.system: Mcl-1 protein (UniProtKB Q07820) (Homo sapiens (Human), UniProt Q07820)
# assay.procedure: Inhibition of Mcl-1 by the fluorescence polarisation assay (Example A, Method A)
# reported.conditions: fluorescence polarization assay
pKi: −log10 of the molar value.
property.label: pKi

Cn1ccc2cc(C3=Cc4ccccc4[C@]34CC[C@@](Nc3cccc(Cl)c3)(C(=O)O)CC4)ccc21 [Example 264]: 5.76

(a) CC1=Cc2cc(Cl)ccc2C12CCC(Nc1cccc(Br)c1)(C(=O)O)CC2 (stereo not drawn) [Example 124]
(b) O=C(O)[C@]1(Nc2cccc(Cl)c2)CC[C@@]2(CC1)c1ccccc1CC2c1cccc(Cl)c1 (single isomer, unassigned) [Example 344]
Ask: Parameter check: reported pKi is higher for which label, a or b ? Select an item and report its label.
Reply: a
(a: 5.89, b: 4.95)

* * *

# tested.system: Mcl-1 protein (UniProtKB Q07820) (Homo sapiens (Human), UniProt Q07820)
# assay.procedure: Inhibition of Mcl-1 by the fluorescence polarisation assay (Example A, Method A)
# reported.conditions: fluorescence polarization assay
pKi: −log10 of the molar value.
property.label: pKi

Solved cases (2 shown):
CC1CCc2nccc(OC[C@H](C)CC3Cc4ccccc4[C@]34CC[C@@](Nc3cccc(Cl)c3)(C(=O)O)CC4)c21 (mixture of isomers) [Example 602]: 8.47
O=C(O)[C@]1(Nc2cccc(Cl)c2)CC[C@@]2(CC1)c1ccccc1CC2c1ccc(Oc2cccnc2)cc1 (stereo partly drawn): 6.35

(P) O=C(O)[C@]1(Nc2cccc(Br)c2)CC[C@]2(CC1)c1ccccc1CC2c1ccccc1 (single isomer, unassigned)
(Q) CC(O)c1ccc2c(c1)[C@]1(CC[C@@](Nc3cccc(Cl)c3)(C(=O)O)CC1)C(Br)=C2 (stereo partly drawn)
(R) COc1ccc(C2Cc3ccccc3C23CCC(Nc2cccc(Cl)c2)(C(=O)O)CC3)cc1Cl (stereo not drawn)
(S) O=C(O)[C@]1(Nc2cccc(Cl)c2)CC[C@@]2(CC1)c1ccccc1CC2c1cccc2ccoc12 (single isomer, unassigned) [Example 294]
Ask: Put the items in sequence by pKi, from largest down. Submit the labels in the order that the ranking request calls for.
Reply: Q, R, S, P

(P) Cc1cncn(CCCC2Cc3ccccc3[C@]23CC[C@@](Nc2cccc(Cl)c2)(C(=O)O)CC3)c1=O (stereo partly drawn)
(Q) O=C(O)[C@]1(Nc2cccc(Cl)c2)CC[C@]2(CC1)C(CCCOc1ccccc1)=Cc1ccccc12
Ask: Would you mind telling me which has the lower recorded pKi between P and Q ? Select an item and report its label.
Reply: P
(P: 5.61, Q: 7.02)

(1) Cc1nc2c(c(OCCCC3Cc4ccccc4[C@]34CC[C@@](Nc3cccc(Cl)c3)(C(=O)O)CC4)n1)C(C)CC2 (stereo partly drawn)
(2) COc1ccc2c(c1)C=C(Br)[C@]21CC[C@](Nc2cccc(Cl)c2)(C(=O)O)CC1
(3) C[C@@H](COc1ncnc2c1CCC2)CC1Cc2ccccc2[C@]12CC[C@@](Nc1cccc(Cl)c1)(C(=O)O)CC2 (stereo partly drawn)
(4) O=C(O)[C@]1(Nc2cccc(Cl)c2)CC[C@@]2(CC1)c1ccccc1C[C@H]2C[C@@H](COc1cccnc1)c1ccccc1
(5) COc1ccc2c(c1)[C@]1(CC[C@@](Nc3cccc(Cl)c3)(C(=O)O)CC1)C1(CCCC1)C2
Ask: Provide the items ranked by increasing pKi. Submit the labels in the order that the ranking request calls for.
Reply: 4, 5, 1, 2, 3
(4: 5.02, 5: 5.67, 1: 6.63, 2: 7.03, 3: 7.84)

* * *

# tested.system: Cy5-labelled Mcl1 (amino acids 171-321) C286S protein (UniProtKB Q07820) (Homo sapiens (Human), UniProt Q07820, C286S)
# Sequence (Q07820 171-321 C286S): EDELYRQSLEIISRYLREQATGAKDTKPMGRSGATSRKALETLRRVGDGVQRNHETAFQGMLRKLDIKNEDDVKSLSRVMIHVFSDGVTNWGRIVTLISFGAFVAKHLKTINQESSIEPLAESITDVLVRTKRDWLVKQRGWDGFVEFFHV
# assay.procedure: Inhibition of Mcl-1 by the fluorescence quenching assay (Example A, Method B)
# Format: binding
# Source text: Fluorescence quenching assay measures the change fluorescence intensity of C-terminally Cy5-labelled Mcl1 (amino acids 171-321) C286S protein (UniProtKB® primary accession number Q07820) having an amino acid sequence: […] The addition of a compound which binds competitively to the same site as the peptide will result in an increase in the fluorescence intensity of the protein due to displacement of the fluorescence quencher. […]
pKi: −log10 of the molar value.
property.label: pKi

Solved cases (2 shown):
C[C@@H](COc1ccnc2c1[C@H](C)CCC2)C[C@H]1Cc2cc3c(cc2[C@]12CC[C@@](Nc1cccc(Cl)c1)(C(=O)O)CC2)O[C@@H](C)CO3: 11.05
C[C@@H](COc1ccnc2c1[C@H](C)CCC2)C[C@@H]1Cc2cc(F)c(F)cc2[C@]12CC[C@@](Nc1cccc(Cl)c1)(C(=O)O)CC2: 8.64

(a) C[C@@H](COc1ccnc2c1[C@H](C)CCC2)C[C@H]1Cc2cc3c(cc2[C@]12CC[C@@](Nc1cccc(Cl)c1)(C(=O)O)CC2)OC[C@@H](C)O3
(b) C[C@@H](COc1ccnc2c1[C@H](C)CCC2)C[C@H]1Cc2ccc(-c3cccn3C)cc2[C@]12CC[C@@](Nc1cccc(Cl)c1)(C(=O)O)CC2
Ask: Would you mind telling me which has the lower recorded pKi between a and b ? Select an item and report its label.
Reply: b

* * *

# tested.system: Cy5-labelled Mcl1 (amino acids 171-321) C286S protein (UniProtKB Q07820) (Homo sapiens (Human), UniProt Q07820, C286S)
# assay.procedure: Inhibition of Mcl-1 by the fluorescence quenching assay (Example A, Method B)
# Type: binding
property.label: Ki (nM)

Solved cases (2 shown):
C[C@@H](COc1ccnc2c1[C@H](C)CC[C@H]2O)C[C@H]1Cc2ccccc2[C@]12CC[C@@](Nc1cccc(Cl)c1)(C(=O)O)CC2 [Example 673]: 0.647
CC[C@H](COc1ccncc1)C[C@@H]1Cc2ccccc2[C@]12CC[C@@](Nc1cccc(Cl)c1)(C(=O)O)CC2: 126

(P) CO[C@H]1CCCc2nccc(OC[C@H](C)C[C@H]3Cc4ccccc4[C@]34CC[C@@](Nc3cccc(Cl)c3)(C(=O)O)CC4)c21
(Q) C[C@@H]1CCCc2nccc(OCC(F)CC3Cc4ccccc4[C@]34CC[C@@](Nc3cccc(Cl)c3)(C(=O)O)CC4)c21 (single isomer, unassigned) [Example 508]
Ask: Would you mind telling me which has the lower recorded Ki between P and Q ? Select an item and report its label.
Reply: Q
(Q: 20.3 nM, P: 39.3 nM)

(A) CCCC#C[C@H](COc1ccnc2ccsc12)CC1=Cc2ccccc2[C@]12CC[C@@](Nc1cccc(Cl)c1)(C(=O)O)CC2
(B) C[C@@H](COc1ccnc2c1C(OC(F)F)CCC2)C[C@H]1Cc2ccccc2[C@]12CC[C@@](Nc1cccc(Cl)c1)(C(=O)O)CC2 (some centres unmarked)
(C) O=C(O)[C@]1(Nc2cccc(Cl)c2)CC[C@@]2(CC1)c1ccccc1CC2CC(COc1ccnc2ccsc12)Cc1ccccc1 (single isomer, unassigned) [Example 561]
(D) C[C@@H](COc1ccnc2c1[C@H](C)CCC2)CC1=Cc2c(Cl)c(Cl)ccc2[C@]12CC[C@@](Nc1cccc(Cl)c1)(C(=O)O)CC2
Ask: Provide the items ranked by increasing Ki. Submit the labels in the order that the ranking request calls for.
Reply: D, B, A, C

(1) COCCOc1ccc2c(c1)[C@]1(CC[C@@](Nc3cccc(Cl)c3)(C(=O)O)CC1)[C@H](C[C@@H](C)COc1ccnc3ccsc13)C2
(2) C[C@@H](COc1ccnc2c1[C@H](C)CCC2)C[C@H]1Cc2ccccc2[C@]12CC[C@@](Nc1cccc(Cl)c1)(C(=O)O)CC2
Ask: Parameter check: reported Ki is higher for which label, 1 or 2 ? Select an item and report its label.
Reply: 1

(a) C[C@@H](COc1ccnc2c1[C@H](C)CCC2)C[C@H]1Cc2cc(Cl)c(OC3CCCC3)cc2[C@]12CC[C@@](Nc1cccc(Cl)c1)(C(=O)O)CC2
(b) C[C@@H](COc1ccnc2c1[C@H]1CCC[C@H]1C2)C[C@H]1Cc2ccccc2[C@]12CC[C@@](Nc1cccc(Cl)c1)(C(=O)O)CC2 (single isomer, unassigned) [Example 620]
Ask: Parameter check: reported Ki is higher for which label, a or b ? Select an item and report its label.
Reply: b
(b: 12.7 nM, a: 0.408 nM)

(I) C[C@@H](COc1ccnc2c1[C@H](C(F)(F)F)CCC2)C[C@H]1Cc2ccccc2[C@]12CC[C@@](Nc1cccc(Cl)c1)(C(=O)O)CC2
(II) CCOc1cc2c(cc1Br)C[C@H](C[C@@H](C)COc1ccnc3c1[C@H](C)CCC3)[C@]21CC[C@](Nc2cccc(Cl)c2)(C(=O)O)CC1
Ask: Parameter check: reported Ki is higher for which label, I or II ? Select an item and report its label.
Reply: I
